pIC50: −log10 of the molar value.
Header: pIC50 / PIK3CB (Human) (UniProt P42338) / multiple publications

>>> experimentalvalue("Cc1nc(NC(=O)N2CCC[C@H]2C(N)=S)sc1-c1ccnc(C(C)(C)C(F)(F)F)c1")
"< 6.00"
>>> experimentalvalue("Cc1nc(NC(=O)N2CC3(C[C@H]2C(N)=S)CC3(F)F)sc1-c1ccnc(C(C)(C)C(F)(F)F)c1 (stereo partly drawn)")
"< 6.00"
>>> experimentalvalue("COc1ncc(-c2nc(N3CCOCC3)nc3c(OC4CCN(c5ncc(C(=O)NO)cc5F)CC4)cc(F)cc23)cc1NS(C)(=O)=O")
"5.00 to 6.00"
>>> experimentalvalue("C=CC(=O)Nc1ccc(N2CC[C@H](N3CCN(c4ccc5c(c4)-c4nc(N6C(=O)OC[C@H]6C(F)F)cn4CCO5)CC3)C2)cc1 (single isomer, unassigned)")
5.90
>>> experimentalvalue("C=CC(=O)Nc1ccc(CC(=O)N2CCN(c3ccc4c(c3)-c3nc(N5C(=O)OC[C@H]5C(F)F)cn3CCO4)CC2)cc1")
6.50

Task item: Returns the measured pIC50 for the input compound. Input: CO[C@H]1C[C@@H](C(N)=S)N(C(=O)Nc2nc(C)c(-c3ccnc(C(C)(C)C(F)(F)F)c3)s2)C1
Reply: < 6.00
